system: Klebsiella pneumoniae; assay: Antibacterial activity against Klebsiella pneumoniae ATCC 700603 assessed as inhibition of bacterial growth incubated for 18 hrs by two fold serial dilution assay; format: functional
Residues, ends and D or L forms follow the SMILES beside them.
measured_endpoint: MIC (µM)
Report only the number, with the unit µM understood.

Return reported MIC; argument: CCCCCCCCCCCCCC(=O)N[C@@H](CCCCN)C(=O)N[C@@H](CCCCN)C(=O)N[C@@H](C)C(=O)N[C@@H](CC(C)C)C(=O)N[C@@H](CCCCN)C(=O)N[C@@H](CC(C)C)C(=O)N[C@@H](C)C(=O)N[C@@H](CCCCN)C(=O)N[C@@H](CCCCN)C(=O)N1CCC[C@H]1C(=O)N[C@@H](CC(C)C)C(=O)N[C@@H](CCCCN)C(=O)N[C@@H](CC(C)C)C(=O)N[C@@H](CC(C)C)C(=O)N[C@@H](CCCCN)C(N)=O (HELM PEPTIDE1{[CCCCCCCCCCCCCC(=O)[*:2]].K.K.A.L.K.L.A.K.K.P.L.K.L.L.K.[am]}$$$$V2.0)
20

###

test: AUClast in CD1 mouse at 10 mg/kg,iv administration measured upto 1 hr by LC-MS/MS analysis; assay type: ADME, organism-based; set-up: time < 1 hrs, dose 10 mg/kg, route iv; conditions: in vivo
Residues, ends and D or L forms follow the SMILES beside them.
measured_endpoint: AUClast (ng·h/mL)
Unit ng·h/mL implied. Number only.

Need AUClast, item CCCCCCCC(=O)N[C@@H](CCCCN)C(=O)N[C@@H](CCCCN)C(=O)N[C@@H](C)C(=O)N[C@@H](CC(C)C)C(=O)N[C@@H](CCCCN)C(=O)N[C@@H](CC(C)C)C(=O)N[C@@H](C)C(=O)N[C@@H](CCCCN)C(=O)N[C@@H](CCCCN)C(=O)N1CCC[C@H]1C(=O)N[C@@H](CC(C)C)C(=O)N[C@@H](CCCCN)C(=O)N[C@@H](CC(C)C)C(=O)N[C@@H](CC(C)C)C(=O)N[C@@H](CCCCN)C(N)=O (HELM PEPTIDE1{[CCCCCCCC(=O)[*:2]].K.K.A.L.K.L.A.K.K.P.L.K.L.L.K.[am]}$$$$V2.0)
941

###

experiment: Hemolytic activity in human blood assessed as hemolysis incubated for 6 hrs by microplate reader analysis; type: toxicity, tissue-based
Residues, ends and D or L forms follow the SMILES beside them.
Measured MHC10 by item

For orientation, consider the following solved cases.
CC(=O)N[C@@H](CCCCN)C(=O)N[C@@H](CCCCN)C(=O)N[C@@H](CC(C)C)C(=O)N[C@@H](CC(C)C)C(=O)N[C@@H](CCCCN)C(=O)N[C@@H](CC(C)C)C(=O)N[C@@H](CC(C)C)C(=O)N[C@@H](CCCCN)C(=O)N[C@@H](CCCCN)C(=O)N1CCC[C@H]1C(=O)N[C@@H](CC(C)C)C(=O)N[C@@H](CCCCN)C(=O)N[C@@H](CC(C)C)C(=O)N[C@@H](CC(C)C)C(=O)N[C@@H](CCCCN)C(N)=O = > 160 µM
CCCCCCCCCCCC(=O)N[C@@H](CCCCN)C(=O)N[C@@H](CCCCN)C(=O)N[C@@H](C)C(=O)N[C@@H](CC(C)C)C(=O)N[C@@H](CCCCN)C(=O)N[C@@H](CC(C)C)C(=O)N[C@@H](C)C(=O)N[C@@H](CCCCN)C(=O)N[C@@H](CCCCN)C(=O)N1CCC[C@H]1C(=O)N[C@@H](CC(C)C)C(=O)N[C@@H](CCCCN)C(=O)N[C@@H](CC(C)C)C(=O)N[C@@H](CC(C)C)C(=O)N[C@@H](CCCCN)C(N)=O (HELM PEPTIDE1{[CCCCCCCCCCCC(=O)[*:2]].K.K.A.L.K.L.A.K.K.P.L.K.L.L.K.[am]}$$$$V2.0) = 160 µM

I would be grateful if you could share the reported MHC10 for CCCCCCCC(=O)N[C@@H](CCCCN)C(=O)N[C@@H](CCCCN)C(=O)N[C@@H](C)C(=O)N[C@@H](CC(C)C)C(=O)N[C@@H](CCCCN)C(=O)N[C@@H](CC(C)C)C(=O)N[C@@H](C)C(=O)N[C@@H](CCCCN)C(=O)N[C@@H](CCCCN)C(=O)N1CCC[C@H]1C(=O)N[C@@H](CC(C)C)C(=O)N[C@@H](CCCCN)C(=O)N[C@@H](CC(C)C)C(=O)N[C@@H](CC(C)C)C(=O)N[C@@H](CCCCN)C(N)=O (HELM PEPTIDE1{[CCCCCCCC(=O)[*:2]].K.K.A.L.K.L.A.K.K.P.L.K.L.L.K.[am]}$$$$V2.0) .
> 160 µM

// query MHC10 value for entry CCCCCCCC(=O)N[C@@H](CCCCN)C(=O)N[C@@H](CCCCN)C(=O)N[C@@H](C)C(=O)N[C@@H](C)C(=O)N[C@@H](CCCCN)C(=O)N[C@@H](C)C(=O)N[C@@H](C)C(=O)N[C@@H](CCCCN)C(=O)N[C@@H](CCCCN)C(=O)N1CCC[C@H]1C(=O)N[C@@H](C)C(=O)N[C@@H](CCCCN)C(=O)N[C@@H](C)C(=O)N[C@@H](C)C(=O)N[C@@H](CCCCN)C(N)=O (HELM PEPTIDE1{[CCCCCCCC(=O)[*:2]].K.K.A.A.K.A.A.K.K.P.A.K.A.A.K.[am]}$$$$V2.0)
> 160 µM

Query (molecule): CCCCCCCCCCCCCCCC(=O)N[C@@H](CCCCN)C(=O)N[C@@H](CCCCN)C(=O)N[C@@H](C)C(=O)N[C@@H](CC(C)C)C(=O)N[C@@H](CCCCN)C(=O)N[C@@H](CC(C)C)C(=O)N[C@@H](C)C(=O)N[C@@H](CCCCN)C(=O)N[C@@H](CCCCN)C(=O)N1CCC[C@H]1C(=O)N[C@@H](CC(C)C)C(=O)N[C@@H](CCCCN)C(=O)N[C@@H](CC(C)C)C(=O)N[C@@H](CC(C)C)C(=O)N[C@@H](CCCCN)C(N)=O (HELM PEPTIDE1{[CCCCCCCCCCCCCCCC(=O)[*:2]].K.K.A.L.K.L.A.K.K.P.L.K.L.L.K.[am]}$$$$V2.0) ; field requested: MHC10
5.9 µM

###

tested on: Acinetobacter baumannii; assay: Antibacterial activity against Acinetobacter baumannii ATCC 17978 assessed as inhibition of bacterial growth incubated for 18 hrs by two fold serial dilution assay; type: functional
Residues, ends and D or L forms follow the SMILES beside them.
Examples of molecules with documented MIC follow.
Write the value in µM as a bare number.

Consider the following illustrative entries.
CCCCCCCCCCCCCC(=O)N[C@@H](CCCCN)C(=O)N[C@@H](CCCCN)C(=O)N[C@@H](C)C(=O)N[C@@H](CC(C)C)C(=O)N[C@@H](CCCCN)C(=O)N[C@@H](CC(C)C)C(=O)N[C@@H](C)C(=O)N[C@@H](CCCCN)C(=O)N[C@@H](CCCCN)C(=O)N1CCC[C@H]1C(=O)N[C@@H](CC(C)C)C(=O)N[C@@H](CCCCN)C(=O)N[C@@H](CC(C)C)C(=O)N[C@@H](CC(C)C)C(=O)N[C@@H](CCCCN)C(N)=O (HELM PEPTIDE1{[CCCCCCCCCCCCCC(=O)[*:2]].K.K.A.L.K.L.A.K.K.P.L.K.L.L.K.[am]}$$$$V2.0) = 1.3
CC(=O)N[C@@H](CCCCN)C(=O)N[C@@H](CCCCN)C(=O)N[C@@H](CC(C)C)C(=O)N[C@@H](CC(C)C)C(=O)N[C@@H](CCCCN)C(=O)N[C@@H](CC(C)C)C(=O)N[C@@H](CC(C)C)C(=O)N[C@@H](CCCCN)C(=O)N[C@@H](CCCCN)C(=O)N1CCC[C@H]1C(=O)N[C@@H](CC(C)C)C(=O)N[C@@H](CCCCN)C(=O)N[C@@H](CC(C)C)C(=O)N[C@@H](CC(C)C)C(=O)N[C@@H](CCCCN)C(N)=O = 10
CCCCCCCCCCCC(=O)N[C@@H](CCCCN)C(=O)N[C@@H](CCCCN)C(=O)N[C@@H](C)C(=O)N[C@@H](CC(C)C)C(=O)N[C@@H](CCCCN)C(=O)N[C@@H](CC(C)C)C(=O)N[C@@H](C)C(=O)N[C@@H](CCCCN)C(=O)N[C@@H](CCCCN)C(=O)N1CCC[C@H]1C(=O)N[C@@H](CC(C)C)C(=O)N[C@@H](CCCCN)C(=O)N[C@@H](CC(C)C)C(=O)N[C@@H](CC(C)C)C(=O)N[C@@H](CCCCN)C(N)=O (HELM PEPTIDE1{[CCCCCCCCCCCC(=O)[*:2]].K.K.A.L.K.L.A.K.K.P.L.K.L.L.K.[am]}$$$$V2.0) = 2.5

Recorded MIC of NCC[C@H](O)C(=O)N[C@@H]1C[C@H](N)[C@@H](O[C@H]2O[C@H](CN)[C@@H](O)[C@H](O)[C@H]2O)[C@H](O)[C@H]1O[C@H]1O[C@H](CO)[C@@H](O)[C@H](N)[C@H]1O , please.
2.5

Where do these numbers come from? They come from ChEMBL document CHEMBL5385907.
